protocol: Absolute systemic availability and lung deposition of inhaled budesonide (plasma LC-MS)
Format: in vivo, healthy subjects
experimental-parameters: human, plasma, inhaled or intranasal, 1 mg, via TURBUHALER, 1 mg inhaled
measured-quantity: Tmax
Answer format reminder: number followed by unit.

# input Quick one: Tmax of CCCC1O[C@@H]2C[C@H]3[C@@H]4CCC5=CC(=O)C=C[C@]5(C)[C@H]4[C@@H](O)C[C@]3(C)[C@]2(C(=O)CO)O1 (stereo partly shown) [budesonide] ?
# output 18 min

====

protocol: Absolute systemic availability and lung deposition of inhaled budesonide (plasma LC-MS)
Assay type: in vivo, healthy subjects
experimental-parameters: human, plasma, inhaled or intranasal, 1 mg, via MDI, 1 mg inhaled
measured-quantity: Cmax

# input Quick one: Cmax of CCCC1O[C@@H]2C[C@H]3[C@@H]4CCC5=CC(=O)C=C[C@]5(C)[C@H]4[C@@H](O)C[C@]3(C)[C@]2(C(=O)CO)O1 (stereo partly shown) [budesonide] ?
# output 2.3 nM

====

protocol: Absolute systemic availability and lung deposition of inhaled budesonide (plasma LC-MS)
Assay type: in vivo, healthy subjects
experimental-parameters: human, plasma, inhaled or intranasal, 1 mg, via TURBUHALER, 1 mg inhaled
measured-quantity: Cmax (nM)
Field format: number, assumed nM, no unit text.

# input Quick one: Cmax of CCCC1O[C@@H]2C[C@H]3[C@@H]4CCC5=CC(=O)C=C[C@]5(C)[C@H]4[C@@H](O)C[C@]3(C)[C@]2(C(=O)CO)O1 (stereo partly shown) [budesonide] ?
# output 3.6

====

protocol: Absolute systemic availability and lung deposition of inhaled budesonide (plasma LC-MS)
Type: in vivo, healthy subjects
experimental-parameters: human, plasma, inhaled or intranasal, 1 mg, via MDI, 1 mg inhaled
Method: In order to determine the absolute systemic availability and the amount of budesonide deposited and absorbed in the lung after inhalation via TURBUHALER and via an MDI, 24 healthy subjects were given budesonide 1 mg as five inhalations of 200 micrograms each, via TURBUHALER inhaler or via MDI, and 0.5 mg intravenously, on separate study days. Budesonide levels were determined in plasma by a LC-MS method. […]
measured-quantity: Tmax
Answer format reminder: number followed by unit.

# input Quick one: Tmax of CCCC1O[C@@H]2C[C@H]3[C@@H]4CCC5=CC(=O)C=C[C@]5(C)[C@H]4[C@@H](O)C[C@]3(C)[C@]2(C(=O)CO)O1 (stereo partly shown) [budesonide] ?
# output 30 min
